In this section we review reported kon values for a set of binders.
# system: T1, serum purified human Complement Factor D (human, UniProt P00746 26-253)
# T1 construct: Serum purified protein flowed over the captured antibodies; also called CFD; human CFD
# T1 sequence (P00746 26-253): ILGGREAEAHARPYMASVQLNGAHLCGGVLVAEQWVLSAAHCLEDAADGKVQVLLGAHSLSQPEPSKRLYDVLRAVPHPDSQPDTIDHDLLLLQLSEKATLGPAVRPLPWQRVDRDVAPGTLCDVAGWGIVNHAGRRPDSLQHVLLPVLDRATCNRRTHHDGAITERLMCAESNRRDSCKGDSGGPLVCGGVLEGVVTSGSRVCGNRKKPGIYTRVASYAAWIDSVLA
# protocol description: SPR Biacore, antibody on protein A chip, single cycle kinetics, 25 C;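 also: antibodies captured to roughly 70 RU on the protein A surface in HBS-EP+ running buffer, with kinetic constants derived by BIAevaluation fitting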
Numbers only here, please. The scale is M⁻¹ s⁻¹.

Reference set, count: 3
binder	measurement unit	observed
28K31S54V59D / 101V (antibody, V domains shown, KCD119 TAF variant; full antibody captured on protein A) VH: EVQLVESGGGLVQPGGSLRLSCAASGYKFTSYYMNWVRQAPGKGLEWIGDINPVTGDTDYNADFKRRFTFSLDTSKSTAYLQMNSLRAEDTAVYYCTREGPSFAYWGQGTLVTVSS VL: DIQLTQSPSSLSASVGDRVTITCRSSQTIVHSNGDTYLEWYQQKPGKAPNLLIYKVSNRFSGVPSRFSGSGSGTDFTLTISSLQPEDFATYYCFQGSHVPVTFGQGTKVEIK	M⁻¹ s⁻¹	7.3e+06
54V59D / 54R101V (antibody, V domains shown, KCD119 TAF variant) VH: EVQLVESGGGLVQPGGSLRLSCAASGYTFTDYYMNWVRQAPGKGLEWIGDINPVTGDTDYNADFKRRFTFSLDTSKSTAYLQMNSLRAEDTAVYYCTREGPSFAYWGQGTLVTVSS VL: DIQLTQSPSSLSASVGDRVTITCRSSQTIVHSNGDTYLEWYQQKPGKAPNLLIRKVSNRFSGVPSRFSGSGSGTDFTLTISSLQPEDFATYYCFQGSHVPVTFGQGTKVEIKR	M⁻¹ s⁻¹	1.19e+07
31S54I59D / 50I60W101V (antibody, V domains shown, KCD119 TAF variant; full antibody captured on protein A) VH: EVQLVESGGGLVQPGGSLRLSCAASGYTFTSYYMNWVRQAPGKGLEWIGDINPITGDTDYNADFKRRFTFSLDTSKSTAYLQMNSLRAEDTAVYYCTREGPSFAYWGQGTLVTVSS VL: DIQLTQSPSSLSASVGDRVTITCRSSQTIVHSNGDTYLEWYQQKPGKAPILLIYKVSNRWSGVPSRFSGSGSGTDFTLTISSLQPEDFATYYCFQGSHVPVTFGQGTKVEIK	M⁻¹ s⁻¹	5.14e+06

Ask: # return recorded kon for entry 28Q31S54V59D / 101V (antibody, V domains shown, KCD119 TAF variant; full antibody captured on protein A) VH: EVQLVESGGGLVQPGGSLRLSCAASGYQFTSYYMNWVRQAPGKGLEWIGDINPVTGDTDYNADFKRRFTFSLDTSKSTAYLQMNSLRAEDTAVYYCTREGPSFAYWGQGTLVTVSS VL: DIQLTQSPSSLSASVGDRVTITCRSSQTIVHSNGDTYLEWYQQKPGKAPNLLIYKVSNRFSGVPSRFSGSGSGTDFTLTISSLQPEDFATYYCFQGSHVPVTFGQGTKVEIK
Reply: 7.15e+06

Ask: # return recorded kon for entry 34I54I59D / 32W60W101V (antibody, V domains shown, KCD119 TAF variant; full antibody captured on protein A) VH: EVQLVESGGGLVQPGGSLRLSCAASGYTFTDYYINWVRQAPGKGLEWIGDINPITGDTDYNADFKRRFTFSLDTSKSTAYLQMNSLRAEDTAVYYCTREGPSFAYWGQGTLVTVSS VL: DIQLTQSPSSLSASVGDRVTITCRSSQTIVHWNGDTYLEWYQQKPGKAPNLLIYKVSNRWSGVPSRFSGSGSGTDFTLTISSLQPEDFATYYCFQGSHVPVTFGQGTKVEIK
Reply: 6.45e+06
